# Test system: 126254-015-R-J1-PDC complex spheroid growth, % test/control
# testName: Anticancer human tumor 126254-015-R-J1-PDC patient-derived soft tissue sarcoma cell line growth inhibition [Asc]
# assayContext: second compound 0.03 µM; first compound 0.316 µM; hits give low values
propertyMeasured: viability, T/C (%)
Please reply with the bare figure in % and do not write the unit itself.

Examples with their reported viability, T/C follow.
* CNC(C)C(=O)NC1CN(S(=O)(=O)c2cccc(S(=O)(=O)N3CCC4CCC(C(=O)NC(c5ccccc5)c5ccccc5)N4C(=O)C(NC(=O)C(C)NC)C3)c2)CCC2CCC(C(=O)NC(c3ccccc3)c3ccccc3)N2C1=O (stereo not drawn) + CCN1C(C(=O)NC23CCC(C(=O)O)(CC2)CC3)C(c2cccc(Cl)c2F)C2(C(=O)Nc3cc(Cl)ccc32)C12CCCCC2 | 50.6
* C=C(F)C(=O)N1CCN(c2nc(OCC3CCCN3C)nc3c2CCN(c2cccc4cccc(Cl)c24)C3)CC1CC#N (stereo not drawn) + CCN1C(C(=O)NC23CCC(C(=O)O)(CC2)CC3)C(c2cccc(Cl)c2F)C2(C(=O)Nc3cc(Cl)ccc32)C12CCCCC2 | 102
* CCN1CCN(Cc2ccc(Nc3ncc(F)c(-c4cc(F)c5nc(C)n(C(C)C)c5c4)n3)nc2)CC1 + CCN1C(C(=O)NC23CCC(C(=O)O)(CC2)CC3)C(c2cccc(Cl)c2F)C2(C(=O)Nc3cc(Cl)ccc32)C12CCCCC2 | 105

Request: Give the reported value of viability, T/C for this record: COc1c(OCCCN2CCOCC2)ccc2c3n(c(=NC(=O)c4cnc(N)nc4)nc12)CCN3 + CCN1C(C(=O)NC23CCC(C(=O)O)(CC2)CC3)C(c2cccc(Cl)c2F)C2(C(=O)Nc3cc(Cl)ccc32)C12CCCCC2
Response: 17.4

Request: Give the reported value of viability, T/C for this record: C#Cc1c(F)ccc2cc(O)cc(-c3ncc4c(N5CC6CCC(C5)N6)nc(OCC56CCCN5CC(F)C6)nc4c3F)c12 (stereo not drawn) + CCN1C(C(=O)NC23CCC(C(=O)O)(CC2)CC3)C(c2cccc(Cl)c2F)C2(C(=O)Nc3cc(Cl)ccc32)C12CCCCC2
Response: 100

----------
// values below are reported viability, T/C
# Tested on: 126254-015-R-J1-PDC complex spheroid growth, % test/control
# testName: Anticancer human tumor 126254-015-R-J1-PDC cell line growth inhibition [Asc];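 also: spheroids exposed to compound for seven days; 100% = DMSO vehicle control wells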
# assayContext: second compound 0.01 µM; first compound 0.316 µM; hits give low values
# Excerpt: Multicellular complex tumor spheroid response to apoptosis pathway targeting inhibitors Alrizomadlin, Pelcitoclax, and Dasminapant in combination with a variety of drugs and investigational agents in selected tumor cell lines […] Compounds. […] If the clinical Cmax for an agent had not been determined, the highest concentration tested was 10 microM. […]
Please reply with the bare figure in % and do not write the unit itself.

Examples with their reported viability, T/C follow.
* C=CC(=O)N1CCN(c2nc(=O)n(-c3c(C)ccnc3C(C)C)c3nc(-c4c(O)cccc4F)c(F)cc23)C(C)C1 (stereo not given) + CNC(C)C(=O)NC1CN(S(=O)(=O)c2cccc(S(=O)(=O)N3CCC4CCC(C(=O)NC(c5ccccc5)c5ccccc5)N4C(=O)C(NC(=O)C(C)NC)C3)c2)CCC2CCC(C(=O)NC(c3ccccc3)c3ccccc3)N2C1=O | 94.5
* CCN1CCN(Cc2ccc(Nc3ncc(F)c(-c4cc(F)c5nc(C)n(C(C)C)c5c4)n3)nc2)CC1 + CNC(C)C(=O)NC1CN(S(=O)(=O)c2cccc(S(=O)(=O)N3CCC4CCC(C(=O)NC(c5ccccc5)c5ccccc5)N4C(=O)C(NC(=O)C(C)NC)C3)c2)CCC2CCC(C(=O)NC(c3ccccc3)c3ccccc3)N2C1=O | 97

Request: Look up and report viability, T/C, with 126254-015-R-J1-PDC complex spheroid growth, % test/control as system, for C=C(F)C(=O)N1CCN(c2nc(OCC3CCCN3C)nc3c2CCN(c2cccc4cccc(Cl)c24)C3)CC1CC#N (stereo not given) + CNC(C)C(=O)NC1CN(S(=O)(=O)c2cccc(S(=O)(=O)N3CCC4CCC(C(=O)NC(c5ccccc5)c5ccccc5)N4C(=O)C(NC(=O)C(C)NC)C3)c2)CCC2CCC(C(=O)NC(c3ccccc3)c3ccccc3)N2C1=O
Response: 80.1

Request: Look up and report viability, T/C, with 126254-015-R-J1-PDC complex spheroid growth, % test/control as system, for COc1c(OCCCN2CCOCC2)ccc2c3n(c(=NC(=O)c4cnc(N)nc4)nc12)CCN3 + CNC(C)C(=O)NC1CN(S(=O)(=O)c2cccc(S(=O)(=O)N3CCC4CCC(C(=O)NC(c5ccccc5)c5ccccc5)N4C(=O)C(NC(=O)C(C)NC)C3)c2)CCC2CCC(C(=O)NC(c3ccccc3)c3ccccc3)N2C1=O
Response: 20.1

Request: Look up and report viability, T/C, with 126254-015-R-J1-PDC complex spheroid growth, % test/control as system, for O=C(c1cc(Cc2n[nH]c(=O)c3ccccc23)ccc1F)N1CCN(C(=O)C2CC2)CC1 + CNC(C)C(=O)NC1CN(S(=O)(=O)c2cccc(S(=O)(=O)N3CCC4CCC(C(=O)NC(c5ccccc5)c5ccccc5)N4C(=O)C(NC(=O)C(C)NC)C3)c2)CCC2CCC(C(=O)NC(c3ccccc3)c3ccccc3)N2C1=O
Response: 94.5

----------
# Test system: 126254-015-R-J1-PDC complex spheroid growth, % test/control
# testName: Anticancer human tumor 126254-015-R-J1-PDC cell line growth inhibition [Asc];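 also: spheroids exposed to compound for seven days; 100% = DMSO vehicle control wells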
# assayContext: second compound 0.1 µM; first compound 0.316 µM; hits give low values
# Description: Multicellular complex tumor spheroid response to apoptosis pathway targeting inhibitors Alrizomadlin, Pelcitoclax, and Dasminapant in combination with a variety of drugs and investigational agents in selected tumor cell lines […] Compounds. […] If the clinical Cmax for an agent had not been determined, the highest concentration tested was 10 microM. […]
propertyMeasured: viability, T/C (%)
Please reply with the bare figure in % and do not write the unit itself.

• C#Cc1c(F)ccc2cc(O)cc(-c3ncc4c(N5CC6CCC(C5)N6)nc(OCC56CCCN5CC(F)C6)nc4c3F)c12 (configuration not stated) + CNC(C)C(=O)NC1CN(S(=O)(=O)c2cccc(S(=O)(=O)N3CCC4CCC(C(=O)NC(c5ccccc5)c5ccccc5)N4C(=O)C(NC(=O)C(C)NC)C3)c2)CCC2CCC(C(=O)NC(c3ccccc3)c3ccccc3)N2C1=O = 65.9
• O=C(c1ccc(F)c(F)c1Nc1ccc(I)cc1F)N1CC(O)([C@@H]2CCCCN2)C1 + CNC(C)C(=O)NC1CN(S(=O)(=O)c2cccc(S(=O)(=O)N3CCC4CCC(C(=O)NC(c5ccccc5)c5ccccc5)N4C(=O)C(NC(=O)C(C)NC)C3)c2)CCC2CCC(C(=O)NC(c3ccccc3)c3ccccc3)N2C1=O = 37
• O=C(c1ccc(F)c(F)c1Nc1ccc(I)cc1F)N1CC(O)([C@@H]2CCCCN2)C1 + Cc1c(S(C)(=O)=O)c(-c2cc(F)cc(N3CCN(c4ccc(NS(=O)(=O)c5ccc(NC(CCN6CCC(C(=O)OCCCP(=O)(O)O)CC6)CSc6ccccc6)c(S(=O)(=O)C(F)(F)F)c5)cc4)CC3)c2)c(-c2ccc(Cl)cc2)n1C(C)C = 70.7
• CCN1CCN(Cc2ccc(Nc3ncc(F)c(-c4cc(F)c5nc(C)n(C(C)C)c5c4)n3)nc2)CC1 + CNC(C)C(=O)NC1CN(S(=O)(=O)c2cccc(S(=O)(=O)N3CCC4CCC(C(=O)NC(c5ccccc5)c5ccccc5)N4C(=O)C(NC(=O)C(C)NC)C3)c2)CCC2CCC(C(=O)NC(c3ccccc3)c3ccccc3)N2C1=O = 75.9
• O=C(c1cc(Cc2n[nH]c(=O)c3ccccc23)ccc1F)N1CCN(C(=O)C2CC2)CC1 + Cc1c(S(C)(=O)=O)c(-c2cc(F)cc(N3CCN(c4ccc(NS(=O)(=O)c5ccc(NC(CCN6CCC(C(=O)OCCCP(=O)(O)O)CC6)CSc6ccccc6)c(S(=O)(=O)C(F)(F)F)c5)cc4)CC3)c2)c(-c2ccc(Cl)cc2)n1C(C)C = 80

Request: Give the reported value of viability, T/C for this record: C#Cc1c(F)ccc2cc(O)cc(-c3ncc4c(N5CC6CCC(C5)N6)nc(OCC56CCCN5CC(F)C6)nc4c3F)c12 (configuration not stated) + Cc1c(S(C)(=O)=O)c(-c2cc(F)cc(N3CCN(c4ccc(NS(=O)(=O)c5ccc(NC(CCN6CCC(C(=O)OCCCP(=O)(O)O)CC6)CSc6ccccc6)c(S(=O)(=O)C(F)(F)F)c5)cc4)CC3)c2)c(-c2ccc(Cl)cc2)n1C(C)C
Response: 90.4

Request: Give the reported value of viability, T/C for this record: O=C(c1cc(Cc2n[nH]c(=O)c3ccccc23)ccc1F)N1CCN(C(=O)C2CC2)CC1 + CNC(C)C(=O)NC1CN(S(=O)(=O)c2cccc(S(=O)(=O)N3CCC4CCC(C(=O)NC(c5ccccc5)c5ccccc5)N4C(=O)C(NC(=O)C(C)NC)C3)c2)CCC2CCC(C(=O)NC(c3ccccc3)c3ccccc3)N2C1=O
Response: 75.4
